Where these numbers come from: paper PMC8955712

biological target: pancreatic lipase (PL) (Sus scrofa); construct: purchased Sigma Aldrich Co. (St Louis, MO, USA); test: PL (lipase) inhibition assay; type: biochemical; settings: read-out: IC50 Values Against PL
Sequence (P00591 whole entry): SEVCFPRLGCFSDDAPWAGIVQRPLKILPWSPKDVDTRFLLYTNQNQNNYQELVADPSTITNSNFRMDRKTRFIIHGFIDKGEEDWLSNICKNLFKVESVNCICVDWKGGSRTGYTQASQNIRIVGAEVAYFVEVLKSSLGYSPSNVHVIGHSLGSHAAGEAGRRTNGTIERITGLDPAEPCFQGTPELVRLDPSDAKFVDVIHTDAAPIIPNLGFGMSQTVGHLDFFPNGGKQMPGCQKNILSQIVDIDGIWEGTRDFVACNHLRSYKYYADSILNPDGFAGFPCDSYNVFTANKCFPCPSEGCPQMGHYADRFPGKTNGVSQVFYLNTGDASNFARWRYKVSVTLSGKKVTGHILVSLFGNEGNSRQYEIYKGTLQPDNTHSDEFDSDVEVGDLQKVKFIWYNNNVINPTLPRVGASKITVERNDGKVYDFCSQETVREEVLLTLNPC
Reported pIC50 values are given for each entry in this list.
In simple prose, pIC50 is minus the logarithm base ten of a concentration in moles per litre.

compound	pIC50
C[C@H]1O[C@H](O[C@H]2[C@H](O)[C@@H](O)[C@@H](O[C@H]3[C@H](O)[C@@H](O)C(O)O[C@@H]3CO)O[C@@H]2CO)[C@H](O)[C@@H](O)[C@@H]1N[C@H]1C=C(CO)[C@@H](O)[C@H](O)[C@H]1O (stereo partly drawn) [acarbose, reference compound]	3.72
CCC(=O)OC[C@H]1O[C@H](O[C@H]2[C@H](O)[C@@H](O)[C@@H](O[C@H]3[C@H](O)[C@@H](O)C(O)O[C@@H]3CO)O[C@@H]2CO)[C@H](O)[C@@H](O)[C@@H]1O[C@H]1O[C@H](C)[C@@H](N[C@H]2C=C(CO)[C@@H](O[C@H]3O[C@H](CO)[C@@H](O[C@H]4O[C@H](C)[C@@H](N[C@H]5C=C(CO)[C@@H](O)[C@H](O)[C@H]5O)[C@H](O)[C@H]4O)[C@H](O)[C@H]3O)[C@H](O)[C@H]2O)[C@H](O)[C@H]1O (stereo partly drawn) [Compound 11, D6-O-Propionyl-acarviostatin II02]	5.14

Kindly note the recorded pIC50 for C[C@H]1O[C@H](O[C@H]2[C@H](O)[C@@H](O)[C@@H](O[C@H]3[C@H](O)[C@@H](O)[C@@H](O[C@H]4[C@H](O)[C@@H](O)[C@@H](O[C@H]5[C@H](O)[C@@H](O)C(O)O[C@@H]5CO)O[C@@H]4CO)O[C@@H]3CO)O[C@@H]2CO)[C@H](O)[C@@H](O)[C@@H]1N[C@H]1C=C(CO)[C@@H](O)[C@H](O)[C@H]1O (stereo partly drawn) [Compound 17, acarviostatin I03] , which is 4.50

###

Molecular target: sucrase
Assay: Sucrase inhibition assay
Conditions: mean ± SD; acarbose positive control; read-out: IC50 Values Against Sucrase
Method: The HPLC-grade methanol and acetonitrile were purchased from CINC High Purity Solvents (Shanghai) Co., Ltd. (Shanghai, China). The other solvents were of analytical grade (Sinopharm Chemical Reagent Co., Ltd., Beijing, China). Porcine pancreatic α-amylase (PPA) and PL were purchased from Sigma Aldrich Co. (St Louis, MO, USA). […] The sucrase inhibition assay of compounds 9–20 was evaluated according to the previously reported method.
parameter_measured: IC50 (µM)
Output spec: scalar in µM, unitless text.

compound	target_or_system	IC50 [µM]
CC1OC(OC2C(CO)OC(OC3C(CO)=CC(NC4C(C)OC(OC5C(CO)OC(OC6C(CO)OC(OC7C(CO)OC(OC8C(CO)OC(O)C(O)C8O)C(O)C7O)C(O)C6O)C(O)C5O)C(O)C4O)C(O)C3O)C(O)C2O)C(O)C(O)C1NC1C=C(CO)C(O)C(O)C1O (stereo not shown)	sucrase	17.2
C[C@H]1O[C@H](O[C@H]2[C@H](O)[C@@H](O)[C@@H](O[C@H]3[C@H](O)[C@@H](O)[C@@H](O[C@H]4[C@H](O)[C@@H](O)C(O)O[C@@H]4CO)O[C@@H]3CO)O[C@@H]2CO)[C@H](O)[C@@H](O)[C@@H]1N[C@H]1C=C(CO)[C@@H](O[C@H]2O[C@H](CO)[C@@H](O[C@H]3O[C@H](C)[C@@H](N[C@H]4C=C(CO)[C@@H](O)[C@H](O)[C@H]4O)[C@H](O)[C@H]3O)[C@H](O)[C@H]2O)[C@H](O)[C@H]1O (stereo partly shown)	sucrase	13.1
CC(C)CC(=O)OC[C@H]1O[C@H](O[C@H]2[C@H](O)[C@@H](O)[C@@H](O[C@H]3[C@H](O)[C@@H](O)C(O)O[C@@H]3CO)O[C@@H]2CO)[C@H](O)[C@@H](O)[C@@H]1O[C@H]1O[C@H](C)[C@@H](N[C@H]2C=C(CO)[C@@H](O[C@H]3O[C@H](CO)[C@@H](O[C@H]4O[C@H](C)[C@@H](N[C@H]5C=C(CO)[C@@H](O)[C@H](O)[C@H]5O)[C@H](O)[C@H]4O)[C@H](O)[C@H]3O)[C@H](O)[C@H]2O)[C@H](O)[C@H]1O (stereo partly shown)	sucrase	7.06
C[C@H]1O[C@H](O[C@H]2[C@H](O)[C@@H](O)[C@@H](O[C@H]3[C@H](O)[C@@H](O)[C@@H](O[C@H]4[C@H](O)[C@@H](O)[C@@H](O[C@H]5[C@H](O)[C@@H](O)C(O)O[C@@H]5CO)O[C@@H]4CO)O[C@@H]3CO)O[C@@H]2CO)[C@H](O)[C@@H](O)[C@@H]1N[C@H]1C=C(CO)[C@@H](O)[C@H](O)[C@H]1O (stereo partly shown)	sucrase	11.1
CC(O)CC(=O)OC[C@H]1O[C@H](O[C@H]2[C@H](O)[C@@H](O)[C@@H](O[C@H]3[C@H](O)[C@@H](O)[C@@H](O[C@H]4[C@H](O)[C@@H](O)C(O)O[C@@H]4CO)O[C@@H]3CO)O[C@@H]2CO)[C@H](O)[C@@H](O)[C@@H]1O[C@H]1O[C@H](C)[C@@H](N[C@H]2C=C(CO)[C@@H](O[C@H]3O[C@H](CO)[C@@H](O[C@H]4O[C@H](C)[C@@H](N[C@H]5C=C(CO)[C@@H](O)[C@H](O)[C@H]5O)[C@H](O)[C@H]4O)[C@H](O)[C@H]3O)[C@H](O)[C@H]2O)[C@H](O)[C@H]1O (stereo partly shown)	sucrase	9.67
C[C@H]1O[C@H](O[C@H]2[C@H](O)[C@@H](O)[C@@H](O[C@H]3[C@H](O)[C@@H](O)C(O)O[C@@H]3CO)O[C@@H]2CO)[C@H](O)[C@@H](O)[C@@H]1N[C@H]1C=C(CO)[C@@H](O)[C@H](O)[C@H]1O (stereo partly shown) [acarbose, reference compound]	sucrase	2.34

Pending compound:
Per the records, this compound ( CCCC(=O)OC[C@H]1O[C@H](O[C@H]2[C@H](O)[C@@H](O)[C@@H](O[C@H]3[C@H](O)[C@@H](O)[C@@H](O[C@H]4[C@H](O)[C@@H](O)C(O)O[C@@H]4CO)O[C@@H]3CO)O[C@@H]2CO)[C@H](O)[C@@H](O)[C@@H]1O[C@H]1O[C@H](C)[C@@H](N[C@H]2C=C(CO)[C@@H](O)[C@H](O)[C@H]2O)[C@H](O)[C@H]1O (stereo partly shown) ) has IC50 equal to 3.8

###

Target: Porcine pancreatic α-amylase (PPA) (Sus scrofa, UniProt P00690)
Construct: purchased Sigma Aldrich Co. (St Louis, MO, USA)
Sequence (P00690 16-511): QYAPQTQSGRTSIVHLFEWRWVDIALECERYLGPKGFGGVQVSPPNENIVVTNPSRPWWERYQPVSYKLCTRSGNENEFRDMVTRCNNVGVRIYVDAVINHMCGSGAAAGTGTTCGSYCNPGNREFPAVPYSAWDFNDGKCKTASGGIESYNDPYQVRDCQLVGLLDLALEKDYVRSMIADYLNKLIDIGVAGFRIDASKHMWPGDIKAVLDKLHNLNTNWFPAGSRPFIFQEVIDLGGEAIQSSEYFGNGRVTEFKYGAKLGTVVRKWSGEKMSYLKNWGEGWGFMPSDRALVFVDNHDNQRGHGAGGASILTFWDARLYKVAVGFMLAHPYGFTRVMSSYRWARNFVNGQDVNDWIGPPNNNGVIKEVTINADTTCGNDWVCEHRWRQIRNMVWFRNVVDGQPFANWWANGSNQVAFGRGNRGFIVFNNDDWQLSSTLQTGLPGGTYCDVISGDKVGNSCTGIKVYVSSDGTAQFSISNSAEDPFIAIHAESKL
Assay: PPA inhibition assay
Format: biochemical
Conditions: read-out: IC50 Values Against PPA
parameter_measured: IC50 (nM)
Response body: numeric value in nM, unit text excluded.

According to the records, this compound CC(C)C(=O)OC[C@H]1O[C@H](O[C@H]2[C@H](O)[C@@H](O)[C@@H](O[C@H]3[C@H](O)[C@@H](O)C(O)O[C@@H]3CO)O[C@@H]2CO)[C@H](O)[C@@H](O)[C@@H]1O[C@H]1O[C@H](C)[C@@H](N[C@H]2C=C(CO)[C@@H](O[C@H]3O[C@H](CO)[C@@H](O[C@H]4O[C@H](C)[C@@H](N[C@H]5C=C(CO)[C@@H](O)[C@H](O)[C@H]5O)[C@H](O)[C@H]4O)[C@H](O)[C@H]3O)[C@H](O)[C@H]2O)[C@H](O)[C@H]1O (stereo partly shown) displays IC50 of 85

###

Molecular target: sucrase
Assay: Sucrase inhibition assay
Conditions: mean ± SD; acarbose positive control; read-out: IC50 Values Against Sucrase
Description: The HPLC-grade methanol and acetonitrile were purchased from CINC High Purity Solvents (Shanghai) Co., Ltd. (Shanghai, China). The other solvents were of analytical grade (Sinopharm Chemical Reagent Co., Ltd., Beijing, China). Porcine pancreatic α-amylase (PPA) and PL were purchased from Sigma Aldrich Co. (St Louis, MO, USA). […] The sucrase inhibition assay of compounds 9–20 was evaluated according to the previously reported method.
parameter_measured: pIC50
Bear in mind: pIC50 is minus log10 of a mol/L concentration; give just that figure.

Observed pIC50, sucrase, CC(C)CC(=O)OC[C@H]1O[C@H](O[C@H]2[C@H](O)[C@@H](O)[C@@H](O[C@H]3[C@H](O)[C@@H](O)[C@@H](O[C@H]4[C@H](O)[C@@H](O)C(O)O[C@@H]4CO)O[C@@H]3CO)O[C@@H]2CO)[C@H](O)[C@@H](O)[C@@H]1O[C@H]1O[C@H](C)[C@@H](N[C@H]2C=C(CO)[C@@H](O[C@H]3O[C@H](CO)[C@@H](O[C@H]4O[C@H](C)[C@@H](N[C@H]5C=C(CO)[C@@H](O)[C@H](O)[C@H]5O)[C@H](O)[C@H]4O)[C@H](O)[C@H]3O)[C@H](O)[C@H]2O)[C@H](O)[C@H]1O (stereo partly shown) [Compound 20, isoVa-Aca II03] : 5.00
